biological target: Recombinant human MMP-2 (Homo sapiens, UniProt P08253); construct: made in house; test: biochemical; conditions: fluorogenic MCA-peptide substrate, pH 7.5, room temperature; read-out: MMP-2 IC50
Sequence (P08253 110-660): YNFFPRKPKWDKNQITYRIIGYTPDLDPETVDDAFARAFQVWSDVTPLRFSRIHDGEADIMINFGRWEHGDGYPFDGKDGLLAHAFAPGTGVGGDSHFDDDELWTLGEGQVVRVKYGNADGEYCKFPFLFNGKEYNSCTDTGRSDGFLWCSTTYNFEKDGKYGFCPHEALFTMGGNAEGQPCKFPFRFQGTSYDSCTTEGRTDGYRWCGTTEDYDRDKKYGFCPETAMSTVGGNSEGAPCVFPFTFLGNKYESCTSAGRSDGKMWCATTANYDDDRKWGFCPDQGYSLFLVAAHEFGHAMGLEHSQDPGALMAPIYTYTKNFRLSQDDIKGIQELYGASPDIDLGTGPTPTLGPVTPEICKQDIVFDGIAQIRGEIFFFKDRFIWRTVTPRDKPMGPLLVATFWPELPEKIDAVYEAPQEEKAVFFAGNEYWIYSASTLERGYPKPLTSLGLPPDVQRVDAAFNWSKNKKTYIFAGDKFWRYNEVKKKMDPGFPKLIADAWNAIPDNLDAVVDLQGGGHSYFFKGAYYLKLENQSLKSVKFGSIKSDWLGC
pIC50: −log10 of the molar value. Counter-ions that a name gives are not always drawn.
Kind request: treat 6 as inclusive, so pIC50 at 6 or higher is Met, anything lower is Not met.

compound="COCCN1CCC(C(=O)NO)(S(=O)(=O)c2ccc(N3CCC(c4ccc(OC)cc4)CC3)cc2)CC1 [Example 267]" tested_on="Recombinant human MMP-2 (Homo sapiens, UniProt P08253)" label_class=Met
compound="COc1ccc(C(=O)C2CCN(c3ccc(S(=O)(=O)C4(C(=O)NO)CCN(CC5CC5)CC4)cc3)CC2)cc1 [Example 188]" tested_on="Recombinant human MMP-2 (Homo sapiens, UniProt P08253)" label_class=Met
compound="O=C(c1ccc(Cl)cc1)C1CCN(c2ccc(S(=O)(=O)C3(C(=O)NO)CCN(CC4CC4)CC3)cc2)CC1 [Example 123]" tested_on="Recombinant human MMP-2 (Homo sapiens, UniProt P08253)" label_class=Met
compound="C[C@H]1C[C@H](C)CN(C(=O)C2CCN(c3ccc(S(=O)(=O)C4(C(=O)NO)CCNCC4)cc3)CC2)C1 (relative stereo) [Example 72, monohydrochloride]" tested_on="Recombinant human MMP-2 (Homo sapiens, UniProt P08253)" label_class="Not met"
compound="COCCN1CCC(C(=O)NO)(S(=O)(=O)c2ccc(N3CCC(C(=O)c4ccc(Cl)c(C)c4)CC3)cc2)CC1 [Example 211]" tested_on="Recombinant human MMP-2 (Homo sapiens, UniProt P08253)" label_class=Met
compound="CC1CC(C)CN(C(=O)C2CCN(c3ccc(S(=O)(=O)C4(C(=O)NO)CCN(C(=O)CN5CCN(CCN(C)C)CC5)CC4)cc3)CC2)C1 (centres unmarked) [Example 111]" tested_on="Recombinant human MMP-2 (Homo sapiens, UniProt P08253)" label_class="Not met"
compound="O=C(NO)C1(S(=O)(=O)c2ccc(N3CCC(SCc4cccc(C(F)(F)F)c4)CC3)cc2)CCN(C2CC2)CC1 [Example 149]" tested_on="Recombinant human MMP-2 (Homo sapiens, UniProt P08253)" label_class=Met
compound="O=C(c1ccc(F)c(F)c1)C1CCN(c2ccc(S(=O)(=O)C3(C(=O)NO)CCOCC3)cc2)CC1 [Example 302]" tested_on="Recombinant human MMP-2 (Homo sapiens, UniProt P08253)" label_class=Met
compound="O=C(NO)C1(S(=O)(=O)c2ccc(N3CCC(SCc4ccccc4Cl)CC3)cc2)CCN(C2CC2)CC1 [Example 147]" tested_on="Recombinant human MMP-2 (Homo sapiens, UniProt P08253)" label_class=Met
compound="CCCc1ccc(C(=O)C2CCN(c3ccc(S(=O)(=O)C4(C(=O)NO)CCN(CCOC)CC4)cc3)CC2)cc1 [Example 120]" tested_on="Recombinant human MMP-2 (Homo sapiens, UniProt P08253)" label_class=Met
compound="C=CCN1CCC(C(=O)NO)(S(=O)(=O)c2ccc(N3CCC(C(=O)c4ccc(OC)cc4)CC3)cc2)CC1 [Example 182]" tested_on="Recombinant human MMP-2 (Homo sapiens, UniProt P08253)" label_class=Met
compound="O=C(c1ccc(CC2CCCCC2)cc1)C1CCN(c2ccc(S(=O)(=O)C3(C(=O)NO)CCN(C4CC4)CC3)cc2)CC1 [Example 198]" tested_on="Recombinant human MMP-2 (Homo sapiens, UniProt P08253)" label_class="Not met"
compound="CCN1CCC(C(=O)NO)(S(=O)(=O)c2ccc(N3CCC(C(=O)c4ccc(CCC(C)O)cc4)CC3)cc2)CC1 (centres unmarked) [Example 248]" tested_on="Recombinant human MMP-2 (Homo sapiens, UniProt P08253)" label_class=Met
compound="CCCc1ccc(C(=O)C2CCN(c3ccc(S(=O)(=O)C4(C(=O)NO)CCN(CC)CC4)cc3)CC2)cc1 [Example 170]" tested_on="Recombinant human MMP-2 (Homo sapiens, UniProt P08253)" label_class=Met
compound="CNc1ccc(C(=O)C2CCN(c3ccc(S(=O)(=O)C4(C(=O)NO)CCN(S(C)(=O)=O)CC4)cc3)CC2)cc1 [Example 167]" tested_on="Recombinant human MMP-2 (Homo sapiens, UniProt P08253)" label_class="Not met"
compound="CCN1CCC(C(=O)NO)(S(=O)(=O)c2ccc(N3CCC(C(=O)c4ccc(CCC(C)C)c(F)c4)CC3)cc2)CC1 [Example 249]" tested_on="Recombinant human MMP-2 (Homo sapiens, UniProt P08253)" label_class="Not met"
compound="O=C(c1ccc(CC2CCCC2)cc1)C1CCN(c2ccc(S(=O)(=O)C3(C(=O)NO)CCN(C4CC4)CC3)cc2)CC1 [Example 197]" tested_on="Recombinant human MMP-2 (Homo sapiens, UniProt P08253)" label_class="Not met"
compound="O=C(NO)C1(S(=O)(=O)c2ccc(N3CCC(Sc4nc5ccccc5s4)CC3)cc2)CCN(C2CC2)CC1 [Example 185]" tested_on="Recombinant human MMP-2 (Homo sapiens, UniProt P08253)" label_class=Met
